The measured values listed here are drawn from PubChem BioAssay.

assay: galactose survival enhancers in mitochondrial complex I cybrids – cell-based, galactose medium, ATP luminescence, primary screen (AID 1645843); conditions: complex I mutant cybrid cells, 72 h, stronger effect = higher value;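 also: positive z means more ATP and so rescue of galactose-driven cybrid death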
Quick rule: z-score of at least -0.2 means 1, below that means 0.

Here are 3 compounds together with their reported answers.
compound	discrete.label
C=CCN1CCN(c2nc3ccccc3nc2C#N)CC1	1
OCCNCCCOc1cccc(Cl)c1Cl	0
COc1cc2ncnc(Nc3ccc(Cl)cc3F)c2cc1OC	1

QUERY: Confirm if z-score reported for the compound `COC(=O)C1=C(C)NC(C)=C([N+](=O)[O-])[C@H]1c1ccccc1C(F)(F)F` is -0.2 or above.
RESULT: 0

QUERY: # bool: z-score of `COc1cc2c(cc1OC)-c1cc3nc4ccccc4nc3n1C(C)(C)C2` >= -0.2
RESULT: 0

QUERY: Decide: is the reported value of z-score for `CC(C)(C)c1cc(C(=O)/C=C/c2ccc(C(=O)O)cc2)cc(C(C)(C)C)c1` equal to or greater than -0.2?
RESULT: 0
